# binding signal values compiled below
Target: T1, UNK ZnF1-3 (human, UniProt Q9C0B0 31-174)
T1 sequence: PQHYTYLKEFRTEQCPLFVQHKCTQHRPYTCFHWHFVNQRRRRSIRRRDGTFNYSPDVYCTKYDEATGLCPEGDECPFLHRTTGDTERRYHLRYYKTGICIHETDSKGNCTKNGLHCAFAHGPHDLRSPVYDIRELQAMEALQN
Assay: nsRBNS (natural sequence RNA bind-n-seq); RBNS binding buffer (assumed for nsRBNS): 25 mM Tris pH 7.5, 150 mM KCl, 3 mM MgCl2, 0.01% Triton X-100, 500 ug/ml BSA, 20 U/ml SUPERase-In, 4 C; UNK is unkempt and MSI1 is Musashi-1; names of the RNAs are library labels; protein concentration not given here; high values mean tight binding
In all, about 24,000 sequences were measured (“enrichment r”: median about 0.99, highest 2% from about 3.7 on). The sample as a whole holds a higher share of the highest values than the screen did.
Note: state the figure and append the unit.

Worked examples, 2 binders total:
binder	observation.type	observed
chrX:12193597:12193598:+_ENSMUSG00000031007_ENSMUST00000033313|mus_mus|motif|central (ssRNA) RNA: GGGAGUUCUACAGUCCGACGAUCACAAAGCUAGUCUCUUCUGAAAUCAACAUAGUAUUUUUAAUAAUUUUAAUAUCUCGGCGGAACCACACGGAUCACCAAACUUGCAGAAGAGAUUAAAAACAGCUAGCUUGCUAGUCAUAUCAACAGAGGAUUGAGCAUCA	binding signal	1.81 enrichment R
chr10:111893599:111893600:+_ENSG00000148700_ENST00000277900|hu_hu|FALSE|FALSE (ssRNA) RNA: GGGAGUUCUACAGUCCGACGAUCAUUCAGACAGAUAGCUGUUUAUGGUGAAUUAUAAUAAUACUUCAUGAGGGCAGAGCUAAUUAAAACUAGUAAUUGCUUAAAAUUCAAAGCCAUUUCUGGACAUAUAAAAUGAGAGAUGAACAACAGAGGAUUGAGCAUCA	binding signal	4.42 enrichment R

Pending binder:
## Input Looking for the measured binding signal of 94906243_94906363_1931_3pUTR_ENSG00000149212_ENST00000536441|human|control|control (ssRNA) RNA: GGGAGUUCUACAGUCCGACGAUCAAAUAAAACACAUCAUUGCACAUUACAGCCGCAAAAAACAAAAAAAAAAAAACAAACGGCUAAACUUUGACACUAGAGAACUGAAUAAUUUUUGAUGCUAUAUCACAAAUAGCUUCAAUGCAACAGAGGAUUGAGCAUCA , can you help?
## Output 6.07 enrichment R
